Record form. Attribute: self-cleavage. Fill in for each entry.
B1: CPEB3 Ribozyme (parent)
chain: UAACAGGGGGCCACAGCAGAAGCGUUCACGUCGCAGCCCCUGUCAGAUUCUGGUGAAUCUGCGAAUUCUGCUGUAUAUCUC

Variants of: B1
assay remarks: self-cleavage, relative activity (ratio to wild type); higher = more cleavage; in vitro, sequencing

Asked: Look up self-cleavage: UAACAGGGGGCCACAGCAGAAGCGUUCACGUCGCAGCUCCUGUCAGAUUCUGGUGAAUCUGCAAAUUCUGCUGUAUAUCUC [C38U G63A]
Given back: 0.6

Asked: Again, but for UAACAGGGGGCCACAGCAGAAGCGUUCACGUCGCAGCCCCUGUCAGAUUCCGGAGAAUCUGCGAAUUCUGCUGUAUAUCUC [U51C U54A]
Given back: 1.03

Asked: Again, but for UAACAGGGGGCCACAGCAGAAGCGUUCACGUCGCAGCCCCUGUCAGAUUCAGGUGAAUCUGCGAAUCCUGCUGUAUAUCUC [U51A U67C]
Given back: 0.4
